melting point for assorted molecules

Use the examples below as a reference point.
molecule: Cn1ncc(/C=C/C(=O)Nc2ccc(CNC(=O)c3ccccc3)cc2)c1-c1ccc(F)cc1
property: melting point
observed result: 250 to 251 °C

molecule: CCOP(=O)(Cc1ccc(NC(=O)/C=C/c2cnn(C)c2-c2ccccc2F)cc1)OCC
property: melting point
observed result: 238 to 240 °C

molecule: COP(=O)(Cc1ccc(NC(=O)/C=C/c2cnn(C)c2-c2cccc(F)c2)cc1)OC
property: melting point
observed result: 224 to 226 °C

molecule: Cn1ncc(/C=C/C(=O)Nc2ccc(CS(=O)(=O)c3c[nH]nn3)cc2)c1-c1ccc(F)cc1
property: melting point
observed result: 204 to 206 °C

molecule: Cn1ncc(/C=C/C(=O)Nc2ccc(CCO)cc2)c1-c1ccc(F)cc1
property: melting point
observed result: 198 to 200 °C

molecule: Cn1ncc(/C=C/C(=O)Nc2ccc(C(=O)O)cc2)c1-c1ccc(F)cc1
property: melting point
observed result: 291 to 292 °C

molecule: CCOP(=O)(Cc1ccc(NC(=O)/C=C/c2cnn(C)c2-c2cccc3ccccc23)cc1)OCC
property: melting point
observed result: 229 to 231 °C

molecule: CCOP(=O)(Cc1ccc(NC(=O)/C=C/c2snnc2-c2ccc(F)cc2)cc1)OCC
property: melting point
observed result: 173 to 175 °C

Which melting point is reported for this molecule? CCOP(=O)(OCC)C(OC)c1ccc(NC(=O)/C=C/c2cnn(C)c2-c2ccc(F)cc2)cc1 (stereo not drawn)
200 to 201 °C

---

property: melting point

Example cases with answers are listed next.
molecule: CCc1nnc(CCc2ccc(NC(=O)/C=C/c3cnn(C)c3-c3ccc(F)cc3)cc2)o1
observed result: 167 to 168 °C
//
molecule: CCOP(=O)(OCC)C(O)c1ccc(NC(=O)/C=C/c2cnn(C)c2-c2ccc(F)cc2)cc1 (centres unmarked)
observed result: 194 to 195 °C
//
molecule: Cn1ncc(/C=C/C(=O)Nc2ccc(CCn3cccn3)cc2)c1-c1ccc(F)cc1
observed result: 205 to 206 °C
//
molecule: CCOP(=O)(Cc1ccc(NC(=O)/C=C/c2cnn(C)c2-c2ccc(OC)cc2)cc1)OCC
observed result: 199 to 200 °C
//
molecule: CC[S+]([O-])Cc1ccc(NC(=O)/C=C/c2cnn(C)c2-c2ccc(F)cc2)cc1 (centres unmarked)
observed result: 228 to 229 °C
//
molecule: CC(=O)c1ccc(NC(=O)/C=C/c2cnn(C)c2-c2ccc(F)cc2)cc1
observed result: 204 to 205 °C
//
molecule: Cn1ncc(/C=C/C(=O)Nc2ccc(CNC(=O)OC(C)(C)C)cc2)c1-c1ccc(F)cc1
observed result: 222 to 223 °C
//
molecule: CCOP(=O)(Cc1ccc(NC(=O)/C=C/c2cnn(C)c2-c2ccc(Cl)cc2)cc1)OCC
observed result: 217 to 218 °C
//
molecule: Cn1ncc(/C=C/C(=O)Nc2ccc(CC(C)(C)O)cc2)c1-c1ccc(F)cc1
observed result: 188 to 189 °C
//
molecule: COP(=O)(Cc1ccc(NC(=O)/C=C/c2snnc2-c2ccc(F)cc2)cc1)OC
observed result: 196 to 197 °C

Looking for the measured melting point of `Cn1ncc(/C=C/C(=O)Nc2ccc(Cc3ccccc3)cc2)c1-c1ccc(F)cc1` , can you help?
226 to 227 °C

Same question, `Cn1ncc(/C=C/C(=O)Nc2ccc(-n3cccn3)cc2)c1-c1ccc(F)cc1` this time
200 to 201 °C

Consider next the molecule `COP(=O)(Cc1ccc(NC(=O)/C=C/c2cnn(C)c2-c2ccc(Cl)cc2)cc1)OC` in the same way.
209 to 210 °C

Next up: `Cc1nc(Cc2ccc(NC(=O)/C=C/c3cnn(C)c3-c3ccc(F)cc3)cc2)no1`
183 to 184 °C

---

Below: a set of entries, each annotated with reported melting point.

Please review the entries below; each comes with its answer.
molecule: Cc1nccn1Cc1ccc(NC(=O)/C=C/c2cnn(C)c2-c2ccc(F)cc2)cc1 [Example 190]
melting point: 232 to 233 °C
//
molecule: Cn1ncc(/C=C/C(=O)Nc2ccc3[nH]c(=O)oc3c2)c1-c1ccc(F)cc1 [Example 106]
melting point: > 300 °C
//
molecule: CCc1cn(Cc2ccc(NC(=O)/C=C/c3cnn(C)c3-c3ccc(F)cc3)cc2)cn1 [Example 171]
melting point: 224 to 226 °C
//
molecule: CCOP(=O)(Cc1ccc(NC(=O)/C=C/c2cnn(C)c2-c2cccs2)cc1)OCC [Example 149]
melting point: 262 to 263 °C

Record request: melting point value, item CCOC(=O)c1csc(Cc2ccc(NC(=O)/C=C/c3cnn(C)c3-c3ccc(F)cc3)cc2)n1 [Example 126]
189 to 190 °C

Next: Cn1ncc(/C=C/C(=O)Nc2ccc(Cc3nccs3)cc2)c1-c1ccc(F)cc1 [Example 128]
209 to 210 °C

Similarly, Cn1nnnc1S(=O)(=O)Cc1ccc(NC(=O)/C=C/c2cnn(C)c2-c2ccc(F)cc2)cc1 [Example 226] ?
224 to 225 °C

And the next one, O=C(O)Cc1ccc(NC(=O)CCc2cnn(-c3ccccc3)c2-c2ccccc2)cc1 [Example 83] ?
199 to 201 °C

Repeat with Cc1nc2ccccc2n1Cc1ccc(NC(=O)/C=C/c2cnn(C)c2-c2ccc(F)cc2)cc1 [Example 173]
263 to 264 °C

---

The entries below are paired with their reported melting point.

Please review the following examples before continuing.
compound: Cn1ncc(/C=C/C(=O)Nc2ccc(Cc3nc(C(N)=O)cs3)cc2)c1-c1ccc(F)cc1
melting point: 159 to 160 °C
//
compound: CCC(=O)NCc1ccc(NC(=O)/C=C/c2cnn(C)c2-c2ccc(F)cc2)cc1
melting point: 271 to 272 °C
//
compound: CCc1nc(Cc2ccc(NC(=O)/C=C/c3cnn(C)c3-c3ccc(F)cc3)cc2)no1
melting point: 150 to 152 °C
//
compound: Cn1ncc(/C=C/C(=O)Nc2ccc(Cn3ccnc3CO)cc2)c1-c1ccc(F)cc1
melting point: 229 to 230 °C
//
compound: CCOP(=O)(Cc1ccc(NC(=O)/C=C/c2nncn2-c2ccc(F)cc2)cc1)OCC
melting point: 217 to 218 °C

Look up melting point: `Cn1ncc(/C=C/C(=O)Nc2ccc(Cn3nc4ccccc4n3)cc2)c1-c1ccc(F)cc1`
222 to 223 °C

Param item: `COP(=O)(Cc1ccc(NC(=O)/C=C/c2cnn(C)c2-c2cccs2)cc1)OC`
247 to 248 °C

Try `Cc1nc(Cc2ccc(NC(=O)/C=C/c3cnn(C)c3-c3ccc(F)cc3)cc2)sc1C` next.
210 to 211 °C

Follow-up entry: `Cn1ncc(/C=C/C(=O)Nc2ccc(Cc3nc4c(s3)CCCC4)cc2)c1-c1ccc(F)cc1`
205 to 206 °C

What would you report for Cn1ncc(/C=C/C(=O)Nc2ccc(C[S+](C)[O-])cc2)c1-c1ccc(F)cc1 (stereo not shown) ?
240 to 241 °C

Lookup `Cn1ncc(/C=C/C(=O)Nc2ccc(Cn3cnc4ccccc43)cc2)c1-c1ccc(F)cc1`
243 to 244 °C

---

property: melting point

compound: Cn1ncc(/C=C/C(=O)Nc2ccc(Cn3nccn3)cc2)c1-c1ccc(F)cc1 [Example 196]
observed result: 178 to 179 °C
//
compound: CC(=O)NCc1ccc(NC(=O)/C=C/c2cnn(C)c2-c2ccc(F)cc2)cc1 [Example 189]
observed result: 233 to 234 °C
//
compound: CSCc1ccc(NC(=O)/C=C/c2cnn(C)c2-c2ccc(SC)cc2)cc1 [Example 207]
observed result: 145 to 146 °C

Entry under review: Cn1ncc(/C=C/C(=O)Nc2ccc(Cc3nc(C(=O)O)cs3)cc2)c1-c1ccc(F)cc1 [Example 131] . Reported melting point?
226 to 227 °C

Now consider Cn1ncc(/C=C/C(=O)Nc2ccccc2CO)c1-c1ccc(F)cc1 [Example 184] .
119 to 120 °C

---

property: melting point

compound: Cc1cncn1Cc1ccc(NC(=O)/C=C/c2cnn(C)c2-c2ccc(F)cc2)cc1
melting point: 260 to 261 °C
//
compound: Cn1nnnc1SCc1ccc(NC(=O)/C=C/c2cnn(C)c2-c2ccc(F)cc2)cc1
melting point: 150 to 152 °C
//
compound: Cn1nnnc1[S+]([O-])Cc1ccc(NC(=O)/C=C/c2cnn(C)c2-c2ccc(F)cc2)cc1 (stereo not shown)
melting point: 179 to 183 °C

Query (compound): `CCc1nc(Cc2ccc(NC(=O)/C=C/c3cnn(C)c3-c3ccc(F)cc3)cc2)cs1` ; field requested: melting point
178 to 179 °C

---

property: melting point

Consider the reported melting point for these molecules:
molecule: Cn1ncc(/C=C/C(=O)Nc2ccc(CS(=O)(=O)C(C)(C)C)cc2)c1-c1ccc(F)cc1 [Example 224]
observed result: 260 to 261 °C
--
molecule: CCc1csc(CCc2ccc(NC(=O)/C=C/c3cnn(C)c3-c3ccc(F)cc3)cc2)n1 [Example 113]
observed result: 200 to 201 °C
--
molecule: CCOP(=O)(Cc1ccc(NC(=O)/C=C/c2cnn(C)c2)cc1)OCC
observed result: 201 to 202 °C
--
molecule: Cn1ncc(/C=C/C(=O)Nc2ccc(CCc3nccs3)cc2)c1-c1ccc(F)cc1 [Example 130]
observed result: 201 to 202 °C
--
molecule: CCS(=O)(=O)Cc1ccc(NC(=O)/C=C/c2cnn(C)c2-c2ccc(F)cc2)cc1 [Example 223]
observed result: 257 to 258 °C

Recorded melting point of CCc1nc(COc2ccc(NC(=O)/C=C/c3cnn(C)c3-c3ccc(F)cc3)cc2)cs1 [Example 93] , please.
98 to 99 °C

Now the same for Cn1ncc(/C=C/C(=O)Nc2ccc(Cc3nn(C)c(=O)o3)cc2)c1-c1ccc(F)cc1 [Example 119]
200 to 201 °C

Moving on to the next molecule: `COP(=O)(Cc1ccc(NC(=O)/C=C/c2cnn(C)c2-c2cccc3ccccc23)cc1)OC`
207 to 209 °C

Source: patent US7423159B2
